Assay: Inhibition of CSF1R in mouse MNFS-60 cells assessed as reduction in CSF-induced cell viability after 48 hrs by Ez-cytox reagent based assay
Measured pIC50 accompanies every entry in the list below.
Scale: negative log10 of molar concentration, which is what pIC50 denotes.

Observe how each entry below is paired with its result.
Cc1ccc(NC(=O)c2ccc(C(F)(F)F)nc2)cc1NC(=O)c1cnc2ccccn12 | 7.60
Cc1cn(-c2cc(NC(=O)c3ccc(C)c(NC(=O)c4cnc5cccnn45)c3)cc(C(F)(F)F)c2)cn1 | 5.74
Cc1cn(-c2cc(NC(=O)c3ccc(C)c(Nc4nccc(-c5cccnc5)n4)c3)cc(C(F)(F)F)c2)cn1 | 6.27

Attention now shifts to the item below.
Query: Field request: pIC50 | item: CCN1CCN(Cc2ccc(NC(=O)c3ccc(C)c(NC(=O)c4cnc5cccnn45)c3)cc2C(F)(F)F)CC1
Result: 6.91

###

Measured IC50 accompanies every entry in the list below.
Test: Inhibition of CSF1R in mouse MNFS-60 cells assessed as reduction in CSF-induced cell viability after 48 hrs by Ez-cytox reagent based assay
Note: a bare number is incomplete; add the unit.

CCN1CCN(Cc2ccc(C(=O)Nc3ccc(C)c(NCc4cnc5ccc(OC)nn45)c3)cc2C(F)(F)F)CC1 | 0.406 µM
CCN1CCN(Cc2ccc(C(=O)Nc3ccc(C)c(NC(=O)c4ncc[nH]4)c3)cc2C(F)(F)F)CC1 | 5.78 µM
CCN1CCN(Cc2ccc(C(=O)Nc3ccc(C)c(NC(=O)c4cnc5cccnn45)c3)cc2C(F)(F)F)CC1 | 0.178 µM
CCN1CCN(Cc2ccc(C(=O)Nc3ccc(C)c(NC(=O)c4cnc5ccccn45)c3)cc2C(F)(F)F)CC1 | 0.149 µM
CNC(=O)c1cc(Oc2ccc3nc(N[C@H]4CCCC[C@H]4O)sc3c2)ccn1 | 0.245 µM
Cc1ccc(NC(=O)c2ccc(C(F)(F)F)nc2)cc1NC(=O)c1cnn2ccccc12 | 0.027 µM

Query: Field request: IC50 | item: Cc1ccc(NCc2ccc(C(F)(F)F)nc2)cc1NC(=O)c1cnc2ccccn12
Result: 3.15 µM

Query: Entry CCN1CCN(Cc2ccc(C(=O)Nc3ccc(C)c(NCc4cnc5cccnn45)c3)cc2C(F)(F)F)CC1 please
Result: 0.66 µM

Query: Entry CCN1CCN(Cc2ccc(C(=O)Nc3ccc(C)c(NC(=O)c4c[nH]cn4)c3)cc2C(F)(F)F)CC1 please
Result: 5.43 µM

###

Assay: Inhibition of CSF1R in mouse MNFS-60 cells assessed as reduction in CSF-induced cell viability after 48 hrs by Ez-cytox reagent based assay
The threshold is 4000 nM. Values of IC50 beneath it are tagged true; values meeting or exceeding it are tagged false.

Worked examples follow.
CCN1CCN(Cc2ccc(C(=O)Nc3ccc(C)c(NC(=O)c4ccn(C)n4)c3)cc2C(F)(F)F)CC1 | false
CCN1CCN(Cc2ccc(C(=O)Nc3ccc(C)c(NC(=O)c4cnnc5ccccc45)c3)cc2C(F)(F)F)CC1 | true
Cc1cn(-c2cc(NC(=O)c3ccc(C)c(NC(=O)c4cnc5ccccn45)c3)cc(C(F)(F)F)c2)cn1 | true
Cc1ccc(NCc2ccc(C(F)(F)F)nc2)cc1NC(=O)c1cnc2cccnn12 | false
CCN1CCN(Cc2ccc(C(=O)Nc3ccc(C)c(NC(=O)c4cc[nH]n4)c3)cc2C(F)(F)F)CC1 | false

Query: API: query returns whether the compound falls strictly under 4000 nM in IC50. Query: Cc1ccc(NCc2ccc(C(F)(F)F)nc2)cc1NC(=O)c1cnn2ccccc12
Result: false

Query: Entry CCN1CCN(Cc2ccc(C(=O)Nc3ccc(C)c(NC(=O)c4cnn5ccccc45)c3)cc2C(F)(F)F)CC1 please
Result: true

Query: Entry CCN1CCN(Cc2ccc(C(=O)Nc3ccc(C)c(NC(=O)c4n[nH]c5ncccc45)c3)cc2C(F)(F)F)CC1 please
Result: true

Query: Entry Cc1ccc(NC(=O)c2ccc(C(F)(F)F)nc2)cc1NC(=O)c1cnc2cccnn12 please
Result: false

Query: Entry FC(F)(F)c1ccc(CNc2ccc(Cc3c[nH]c4ncc(Cl)cc34)cn2)cn1 please
Result: true

Query: Entry CCN1CCN(Cc2ccc(C(=O)Nc3ccc(C)c(NC(=O)c4cnc5ncccn45)c3)cc2C(F)(F)F)CC1 please
Result: false

Query: Entry CCN1CCN(Cc2ccc(C(=O)Nc3ccc(C)c(NC(=O)c4n[nH]c5ccccc45)c3)cc2C(F)(F)F)CC1 please
Result: true
